- System: celastrol signature
- RUN DESCRIPTION: Connectivity Map query with the celastrol signature
- Assay type: cell-based, human
- EXPERIMENTAL CONDITIONS: rank by celastrol score among 164 Connectivity Map compounds
Each entry below carries its recorded celastrol rank.
MEASUREMENT NAME: celastrol rank

# COMPOUND, MEASUREMENT NAME, RECORDED RESULT
rows = [
    ("C=CCNC1=C2C[C@@H](C)C[C@H](OC)[C@H](O)[C@@H](C)/C=C(\\C)[C@H](OC(N)=O)[C@@H](OC)/C=C\\C=C(/C)C(=O)NC(=CC1=O)C2=O [17-AAG, 17-allylamino-geldanamycin, reference compound]", "celastrol rank", 8),
    ("Oc1cc(O)c2c(c1)OC(c1ccc(O)c(O)c1)C(O)C2 (single isomer, unassigned; (-)) [(−)-catechin]", "celastrol rank", 113),
    ("COc1cc(/C=C(\\C#N)C(N)=O)cc(CSc2nc3ccccc3s2)c1O [tyrphostin AG-825]", "celastrol rank", 137),
]

====

- Tested on: celastrol signature
- RUN DESCRIPTION: Connectivity Map query with the celastrol signature
- Format: cell-based, human
- Parameters: key: connectivity score, based on Kolmogorov-Smirnov statistic
- EXPERIMENTAL CONDITIONS: enrichment of the celastrol signature (1.25 μM celastrol at 6 h, LNCaP) in the compound's Connectivity Map profiles; 6 hr treatment

# COMPOUND, TARGET ENTITY, celastrol score (connectivity score)
rows = [
    ("C[C@]12CC[C@@H]3c4ccc(O)cc4C[C@@H](CCCCCCCCC[S+]([O-])CCCC(F)(F)C(F)(F)F)[C@H]3[C@@H]1CC[C@@H]2O (some centres unmarked) [fulvestrant]", "celastrol signature", 0.069),
    ("CS(=O)(=O)c1ccc(-n2nc(C(F)(F)F)cc2-c2ccc(F)cc2)cc1 [SC-58125]", "celastrol signature", "−0.112"),
    ("CN(C)CCC=C1c2ccccc2CCc2ccccc21 [amitriptyline]", "celastrol signature", 0),
    ("CC(C)(Sc1cc(C(C)(C)C)c(O)c(C(C)(C)C)c1)Sc1cc(C(C)(C)C)c(O)c(C(C)(C)C)c1 [probucol]", "celastrol signature", 0.332),
    ("CC[C@H]1/C=C/C=C/C[C@@H](C)[C@H](O)[C@@](C)(O)C(=O)[C@@H](C)[C@H](O)[C@@H](C)C(=O)[C@@H](C)[C@H](O)[C@@H](C)/C=C/C(=O)O[C@@H]2[C@H](C)[C@H](CC1)O[C@]1(CC[C@H](C)[C@H](C[C@@H](C)O)O1)[C@H]2C [oligomycin]", "celastrol signature", "−0.491"),
    ("CS(=O)(=O)c1ccc(C2=C(c3ccccc3)C(=O)OC2)cc1 [rofecoxib]", "celastrol signature", 0.088),
    ("Oc1cc(O)c2c(c1)OC(c1ccc(O)c(O)c1)C(O)C2 (single isomer, unassigned; (-)) [(−)-catechin]", "celastrol signature", 0),
    ("CC(=O)Oc1ccccc1C(=O)O [acetylsalicylic acid]", "celastrol signature", 0.154),
    ("CC(=O)c1c(O)c(C)c(O)c(Cc2c(O)c3c(c(C(=O)/C=C/c4ccccc4)c2O)OC(C)(C)C=C3)c1O [rottlerin]", "celastrol signature", 0.355),
    ("CC(Cc1ccc(O)c(O)c1)C(C)Cc1ccc(O)c(O)c1 (centres unmarked) [nordihydroguaiaretic acid]", "celastrol signature", 0.264),
    ("CSc1ccc2c(c1)N(CCC1CCCCN1C)c1ccccc1S2 (centres unmarked) [thioridazine]", "celastrol signature", 0.308),
    ("Oc1cccc2c(O)nccc12 [1,5-isoquinolinediol]", "celastrol signature", "−0.608"),
    ("C[C@]12C=CC(=O)C=C1CC[C@@H]1[C@@H]2[C@@H](O)C[C@@]2(C)[C@H]1CC[C@]2(O)C(=O)CO [prednisolone]", "celastrol signature", 0),
    ("NC(CO)C(=O)NNCc1ccc(O)c(O)c1O (centres unmarked) [benserazide]", "celastrol signature", 0),
    ("C[C@]12CCC(=O)C=C1CC[C@H]1[C@@H]3CC[C@](O)(C(=O)CO)[C@@]3(C)C[C@H](O)[C@@]12F [fludrocortisone]", "celastrol signature", 0),
    ("CC1=C(CC(=O)O)c2cc(F)ccc2/C1=C\\c1ccc(S(C)(=O)=O)cc1 [exisulind]", "celastrol signature", "−0.038"),
    ("Cc1ccc2c(c1)C(=O)C1(O)CCN(c3ccccc3)C1=N2 (centres unmarked) [blebbistatin]", "celastrol signature", 0),
    ("O=C(O)c1ccccc1Nc1cccc(C(F)(F)F)c1 [flufenamic acid]", "celastrol signature", 0),
    ("CCCC(=O)Nc1ncnc2c1ncn2[C@@H]1O[C@@H]2COP(=O)(O)O[C@H]2[C@H]1OC(=O)CCC [bucladesine]", "celastrol signature", 0),
    ("COC[C@H]1OC(=O)c2coc3c2[C@@]1(C)C1=C(C3=O)[C@@H]2CCC(=O)[C@@]2(C)C[C@H]1OC(C)=O [wortmannin]", "celastrol signature", "−0.324"),
    ("Oc1ccc(C=Cc2cc(O)cc(O)c2)cc1 [resveratrol]", "celastrol signature", 0.266),
    ("O=C1CCC(N2C(=O)c3ccccc3C2=O)C(=O)N1 (centres unmarked) [thalidomide]", "celastrol signature", "−0.256"),
    ("CC1(C)O[C@@H]2[C@@H](CO[C@@]3(COS(N)(=O)=O)OC(C)(C)O[C@@H]23)O1 [topiramate]", "celastrol signature", 0),
    ("OCCN1CCN(CCCN2c3ccccc3Sc3ccc(C(F)(F)F)cc32)CC1 [fluphenazine]", "celastrol signature", 0.481),
    ("COC(=O)CNC(=O)C(=O)OC [dimelhyloxalylglycine]", "celastrol signature", 0.326),
    ("O=c1[nH]c2ccccc2c2ccccc12 [phenanthridinone]", "celastrol signature", 0.429),
]
